I'd be grateful if you could share measured hERG current change (%, negative = inhibition) at 10uM for these entries.
# TARGET_OR_TEST_SYSTEM: human ether-à-go-go-related gene (hERG) potassium channel (human, UniProt Q12809);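 note: peak tail current of the secondary pulse compared with the same well before compound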
# Sequence (Q12809 whole entry, looked up): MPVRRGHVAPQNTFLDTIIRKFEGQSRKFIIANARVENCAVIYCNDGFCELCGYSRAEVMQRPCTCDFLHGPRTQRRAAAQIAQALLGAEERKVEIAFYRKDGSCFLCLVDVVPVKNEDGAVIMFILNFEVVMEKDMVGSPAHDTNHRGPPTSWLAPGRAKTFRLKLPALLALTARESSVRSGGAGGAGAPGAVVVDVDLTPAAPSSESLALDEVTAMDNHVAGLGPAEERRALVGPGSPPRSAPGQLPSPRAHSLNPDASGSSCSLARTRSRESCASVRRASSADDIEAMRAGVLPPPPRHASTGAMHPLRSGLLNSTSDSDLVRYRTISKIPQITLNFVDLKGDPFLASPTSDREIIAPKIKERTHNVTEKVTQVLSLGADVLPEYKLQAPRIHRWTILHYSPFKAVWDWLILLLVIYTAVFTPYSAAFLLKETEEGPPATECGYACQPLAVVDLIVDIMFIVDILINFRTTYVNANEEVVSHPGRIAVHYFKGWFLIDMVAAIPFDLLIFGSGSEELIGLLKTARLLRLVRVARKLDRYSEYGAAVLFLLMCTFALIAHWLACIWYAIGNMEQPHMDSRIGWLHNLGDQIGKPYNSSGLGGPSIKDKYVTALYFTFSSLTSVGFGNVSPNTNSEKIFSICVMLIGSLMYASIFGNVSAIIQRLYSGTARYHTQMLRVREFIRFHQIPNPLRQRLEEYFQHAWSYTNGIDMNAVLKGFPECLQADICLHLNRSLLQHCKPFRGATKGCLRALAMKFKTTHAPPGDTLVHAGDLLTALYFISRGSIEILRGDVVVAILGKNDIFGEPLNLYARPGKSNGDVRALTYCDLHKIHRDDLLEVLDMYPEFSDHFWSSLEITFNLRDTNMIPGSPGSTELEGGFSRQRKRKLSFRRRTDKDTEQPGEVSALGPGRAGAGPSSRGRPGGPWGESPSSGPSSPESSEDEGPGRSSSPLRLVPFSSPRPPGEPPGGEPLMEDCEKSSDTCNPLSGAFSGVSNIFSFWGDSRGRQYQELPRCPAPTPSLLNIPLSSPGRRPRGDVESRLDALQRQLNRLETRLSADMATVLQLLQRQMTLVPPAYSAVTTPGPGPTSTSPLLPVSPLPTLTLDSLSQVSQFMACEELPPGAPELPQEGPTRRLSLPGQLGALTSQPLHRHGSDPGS
# ASSAY: primary screen, population patch clamp on CHO cells stably expressing hERG; higher = less effect of the substance
Out of some 310,000 compounds screened, about 14,000 (4.5%) showed an effect of 50% or more. Effects have a minus sign here. What follows is part of a selection rich in strong results, with near analogues and random picks from the rest.
Answers are plain numbers, in %.

CN1CCc2c(c3ccccc3n2C)C1.Cl = 11.4
CCn1c(SCC(=O)N2CCc3ccccc32)nnc1-c1c[nH]c2ccccc12 = 11.8

Now, please, on to the next molecule.
# hERG current change (%, negative = inhibition) at 10uM lookup, item Cc1ccc2c(c1)c1c(n2CCc2ccc(C)nc2)CCN(C)C1
-15.8

====

I'd be grateful if you could share measured hERG current change (%, negative = inhibition) at 10uM for these entries.
# TARGET_OR_TEST_SYSTEM: human ether-à-go-go-related gene (hERG) potassium channel (human, UniProt Q12809);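 note: peak tail current of the secondary pulse compared with the same well before compound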
# ASSAY: primary screen, population patch clamp on CHO cells stably expressing hERG; higher = less effect of the substance
About 14,000 (4.5%) of roughly 310,000 compounds showed an effect of 50% or more. Effects have a minus sign here. Only a selection was taken, and strong results are over-represented in it overall.
Give bare numbers, in %.

Examples with their reported hERG current change (%, negative = inhibition) at 10uM follow.
CC(=O)N(C)c1ccc(NC(=O)Nc2cccc3ccccc23)cc1 = -2.88
NNC(=O)c1sccc1OCc1ccc(Cl)cc1 = 2.41
COc1ccc(COc2ccsc2C(=O)Nc2ccc(Cl)cc2)cc1 = 7.17

For the 2 molecules below, give their hERG current change (%, negative = inhibition) at 10uM values.
1. CC1(C(=O)O)COC(c2ccc(Cl)cc2)OC1 (centres unmarked)
2. COc1ccsc1NC(=O)OCc1ccc(Cl)cc1

[-25.3, -77.8]

====

# TARGET_OR_TEST_SYSTEM: human ether-à-go-go-related gene (hERG) potassium channel (human);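 note: peak tail current of the secondary pulse compared with the same well before compound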
# ASSAY: primary screen, population patch clamp on CHO cells stably expressing hERG; higher = less effect of the substance
The whole screen tested about 310,000 compounds, of which about 14,000 (4.5%) showed an effect of 50% or more. The effect is printed as a negative number. The sample holds strong results, similar compounds and a random draw of the others, so the mix is not that of the screen.
MEASURED_PARAMETER: hERG current change (%, negative = inhibition) at 10uM (%)
Answers are plain numbers, in %.

COc1ccc(S(=O)(=O)CCC(=O)N2CCN(c3ccc(F)cc3)CC2)cc1 = -59.7
COc1cc(/C=C2/SC(=S)NC2=O)ccc1OS(=O)(=O)c1ccc(C)cc1 = 39.8
CC(=O)Nc1ccc(NC(=O)CN(C)S(=O)(=O)c2ccc3nc(C)sc3c2)cc1 = 25.7

For the 4 molecules below, give their hERG current change (%, negative = inhibition) at 10uM values.
1. O=C(Nc1ccc(Cl)c(S(=O)(=O)N2CCOCC2)c1)[C@@H]1CCCN1C(=O)c1cccs1
2. COc1ccc(NC(=O)[C@@H]2CCCN2C(=O)c2cccs2)cc1S(=O)(=O)N1CCCCC1
3. CC1(C)CC(=O)c2c(O)cc(OCc3ccc([N+](=O)[O-])cc3)cc2O1
4. O=C(NCCc1ccccc1)c1cnc2ccccn2c1=O

1. -57.6
2. -6.06
3. 15.1
4. -12

For the 5 molecules below, give their hERG current change (%, negative = inhibition) at 10uM values.
1. O=c1[nH]ncn2cccc12
2. CCN(C(=O)COc1ccccc1)c1nnc(-c2cccnc2)s1
3. Cc1ccc(NC(=O)[C@@H]2CCCN2C(=O)c2cccs2)cc1S(=O)(=O)N1CCCCC1
4. CCCNC(=O)C(Cc1cccc(OC)c1)NC(=O)c1ccc(C#N)cc1 (stereo not drawn)
5. Cc1ccc(NC(=O)C2CCCN2C(=O)c2cccs2)cc1C (stereo not drawn)

1. 24.1
2. 8.69
3. -63.9
4. -7.8
5. -25.5
